system: Escherichia coli TOP10; test: shrunken log2 fold change of peptide-encoding DNA abundance (4.5 h post-induction vs induction); higher = less antimicrobial activity (less host growth inhibition); settings: time post-induction: 4.5 h; library: site-saturation at positions 5, 18, 19, 20
Is shrunken log2 fold change at least -0.005? Then TRUE. If not, FALSE.

Completed entries (count: 2):
          monomer_sequence  class
0  RRIRYRPPRLPRPRPRPTWDPRP   TRUE
1  RRIRFRPPRLPRPRPRPFEWPRP  FALSE

Task: Check the entry `RRIRPRPPRLPRPRPRPQDWPRP` : does shrunken log2 fold change equal or exceed -0.005?
Result: TRUE

Task: Check the entry `RRIRRRPPRLPRPRPRPADIPRP` : does shrunken log2 fold change equal or exceed -0.005?
Result: FALSE

Task: Check the entry `RRIRGRPPRLPRPRPRPINKPRP` : does shrunken log2 fold change equal or exceed -0.005?
Result: TRUE

Task: Check the entry `RRIRFRPPRLPRPRPRPWIDPRP` : does shrunken log2 fold change equal or exceed -0.005?
Result: FALSE

Task: Check the entry `RRIRTRPPRLPRPRPRPYKYPRP` : does shrunken log2 fold change equal or exceed -0.005?
Result: FALSE

Task: Check the entry `RRIRVRPPRLPRPRPRPSELPRP` : does shrunken log2 fold change equal or exceed -0.005?
Result: FALSE

Task: Check the entry `RRIRFRPPRLPRPRPRPQKFPRP` : does shrunken log2 fold change equal or exceed -0.005?
Result: FALSE

Task: Check the entry `RRIRKRPPRLPRPRPRPKCPPRP` : does shrunken log2 fold change equal or exceed -0.005?
Result: TRUE

----------
tested on: Escherichia coli TOP10; test: shrunken log2 fold change of peptide-encoding DNA abundance (4.5 h post-induction vs induction); higher = less antimicrobial activity (less host growth inhibition); conditions: time post-induction: 4.5 h; library: site-saturation at positions 5, 18, 19, 20
Is shrunken log2 fold change at least 0.1? Then true. If not, false.

Completed entries (count: 4):
>>> df
          monomer_sequence  class
0  RRIRPRPPRLPRPRPRPEALPRP   true
1  RRIRERPPRLPRPRPRPWTEPRP  false
2  RRIRLRPPRLPRPRPRPDDYPRP  false
3  RRIRSRPPRLPRPRPRPICTPRP   true

Task: Check the entry `RRIRPRPPRLPRPRPRPRWPPRP` : does shrunken log2 fold change equal or exceed 0.1?
Result: true

Task: Check the entry `RRIRFRPPRLPRPRPRPRETPRP` : does shrunken log2 fold change equal or exceed 0.1?
Result: false

Task: Check the entry `RRIRERPPRLPRPRPRPQHVPRP` : does shrunken log2 fold change equal or exceed 0.1?
Result: false

Task: Check the entry `RRIRYRPPRLPRPRPRPSFIPRP` : does shrunken log2 fold change equal or exceed 0.1?
Result: false

Task: Check the entry `RRIRIRPPRLPRPRPRPNTTPRP` : does shrunken log2 fold change equal or exceed 0.1?
Result: false

Task: Check the entry `RRIRGRPPRLPRPRPRPLKYPRP` : does shrunken log2 fold change equal or exceed 0.1?
Result: true

Task: Check the entry `RRIRERPPRLPRPRPRPVCMPRP` : does shrunken log2 fold change equal or exceed 0.1?
Result: false

Task: Check the entry `RRIRMRPPRLPRPRPRPNPTPRP` : does shrunken log2 fold change equal or exceed 0.1?
Result: true

Task: Check the entry `RRIRTRPPRLPRPRPRPLLKPRP` : does shrunken log2 fold change equal or exceed 0.1?
Result: false

Task: Check the entry `RRIRARPPRLPRPRPRPFCWPRP` : does shrunken log2 fold change equal or exceed 0.1?
Result: true

Task: Check the entry `RRIRSRPPRLPRPRPRPGALPRP` : does shrunken log2 fold change equal or exceed 0.1?
Result: true

Task: Check the entry `RRIRGRPPRLPRPRPRPPMIPRP` : does shrunken log2 fold change equal or exceed 0.1?
Result: false

Task: Check the entry `RRIRWRPPRLPRPRPRPASTPRP` : does shrunken log2 fold change equal or exceed 0.1?
Result: true

Task: Check the entry `RRIRVRPPRLPRPRPRPAFPPRP` : does shrunken log2 fold change equal or exceed 0.1?
Result: true

Task: Check the entry `RRIRDRPPRLPRPRPRPMRWPRP` : does shrunken log2 fold change equal or exceed 0.1?
Result: true

----------
shrunken log2 fold change for assorted sequences
test system: Escherichia coli TOP10; test: shrunken log2 fold change of peptide-encoding DNA abundance (4.5 h post-induction vs induction); higher = less antimicrobial activity (less host growth inhibition); details: time post-induction: 4.5 h; library: site-saturation at positions 5, 18, 19, 20

Consider the reported shrunken log2 fold change for these sequences:
In [3]: df
Out[3]:
          monomer_sequence         attribute_measured  experimental_value
0  RRIRARPPRLPRPRPRPFNTPRP  shrunken log2 fold change              -0.189
1  RRIRERPPRLPRPRPRPILDPRP  shrunken log2 fold change              -0.209
2  RRIRCRPPRLPRPRPRPPICPRP  shrunken log2 fold change              -0.248
3  RRIRFRPPRLPRPRPRPAKTPRP  shrunken log2 fold change             -0.0138
4  RRIRTRPPRLPRPRPRPCSHPRP  shrunken log2 fold change                0.13
5  RRIRWRPPRLPRPRPRPCFCPRP  shrunken log2 fold change               0.126
6  RRIRGRPPRLPRPRPRPCEEPRP  shrunken log2 fold change               0.742
7  RRIRNRPPRLPRPRPRPHWQPRP  shrunken log2 fold change              -0.115
8  RRIRSRPPRLPRPRPRPDHTPRP  shrunken log2 fold change              -0.407
9  RRIRMRPPRLPRPRPRPAYPPRP  shrunken log2 fold change              0.0222

Continue with the sequence presented below.
Task: I am curious: what shrunken log2 fold change value has been reported for `RRIRGRPPRLPRPRPRPLHRPRP` ?
Result: 0.187

----------
test system: Escherichia coli TOP10; assay: shrunken log2 fold change of peptide-encoding DNA abundance (4.5 h post-induction vs induction); higher = less antimicrobial activity (less host growth inhibition); conditions: time post-induction: 4.5 h; library: site-saturation at positions 5, 18, 19, 20
Just so you know, the groups by shrunken log2 fold change go like this: Low = under -0.2, Mid = from -0.2 up to 0.06, High = 0.06 and over

Task: Which band does `RRIRARPPRLPRPRPRPNHTPRP` fall in?
Result: Low

Task: Which band does `RRIRVRPPRLPRPRPRPNHTPRP` fall in?
Result: Low

Task: Which band does `RRIRCRPPRLPRPRPRPWTGPRP` fall in?
Result: Low

Task: Which band does `RRIRWRPPRLPRPRPRPPNPPRP` fall in?
Result: High

----------
test system: Escherichia coli TOP10; test: shrunken log2 fold change of peptide-encoding DNA abundance (4.5 h post-induction vs induction); higher = less antimicrobial activity (less host growth inhibition); settings: time post-induction: 4.5 h; library: site-saturation at positions 5, 18, 19, 20
Attribute measured: shrunken log2 fold change
Lab note: record just the number, no unit beside it.

Task: I am curious: what shrunken log2 fold change value has been reported for `RRIRCRPPRLPRPRPRPHISPRP` ?
Result: -0.535

Task: I am curious: what shrunken log2 fold change value has been reported for `RRIRLRPPRLPRPRPRPISFPRP` ?
Result: -0.158

Task: I am curious: what shrunken log2 fold change value has been reported for `RRIRCRPPRLPRPRPRPWPTPRP` ?
Result: 0.0985

----------
test system: Escherichia coli TOP10; assay: shrunken log2 fold change of peptide-encoding DNA abundance (4.5 h post-induction vs induction); higher = less antimicrobial activity (less host growth inhibition); conditions: time post-induction: 4.5 h; library: site-saturation at positions 5, 18, 19, 20
shrunken log2 fold change for assorted sequences
Lab note: record just the number, no unit beside it.

Consider the reported shrunken log2 fold change for these sequences:
>>> df
          monomer_sequence  experimental_value
0  RRIRFRPPRLPRPRPRPLERPRP             -0.0153
1  RRIRPRPPRLPRPRPRPVEGPRP              0.0448
2  RRIRFRPPRLPRPRPRPVEYPRP              -0.109

Task: I am curious: what shrunken log2 fold change value has been reported for `RRIRERPPRLPRPRPRPLETPRP` ?
Result: -0.0311

----------
tested on: Escherichia coli TOP10; assay: shrunken log2 fold change of peptide-encoding DNA abundance (4.5 h post-induction vs induction); higher = less antimicrobial activity (less host growth inhibition); conditions: time post-induction: 4.5 h; library: site-saturation at positions 5, 18, 19, 20;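 further: peptides expressed intracellularly from a pBAD plasmid library in pooled LB shake-flask culture, induced with 0.3% L-arabinose, DNA abundance read by NGS, three biological replicates, DESeq2 with apeglm shrinkage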
Attribute measured: shrunken log2 fold change
Lab note: record just the number, no unit beside it.

Consider the reported shrunken log2 fold change for these sequences:
In [3]: df
Out[3]:
          monomer_sequence            study_system  experimental_value
0  RRIRKRPPRLPRPRPRPSSAPRP  Escherichia coli TOP10               0.214
1  RRIRGRPPRLPRPRPRPQCCPRP  Escherichia coli TOP10               0.168
2  RRIRGRPPRLPRPRPRPWYRPRP  Escherichia coli TOP10               -0.19
3  RRIRQRPPRLPRPRPRPVPCPRP  Escherichia coli TOP10              0.0476

Task: I am curious: what shrunken log2 fold change value has been reported for `RRIRYRPPRLPRPRPRPAVIPRP` ?
Result: -0.0517

Task: I am curious: what shrunken log2 fold change value has been reported for `RRIRYRPPRLPRPRPRPTGNPRP` ?
Result: -0.858

Task: I am curious: what shrunken log2 fold change value has been reported for `RRIRTRPPRLPRPRPRPGPRPRP` ?
Result: 0.716

Task: I am curious: what shrunken log2 fold change value has been reported for `RRIRHRPPRLPRPRPRPTTAPRP` ?
Result: 0.0968

Task: I am curious: what shrunken log2 fold change value has been reported for `RRIRFRPPRLPRPRPRPCEAPRP` ?
Result: 0.122

Task: I am curious: what shrunken log2 fold change value has been reported for `RRIRRRPPRLPRPRPRPDAHPRP` ?
Result: -0.00208
